Test: Half life in male ICR mouse plasma at 10 mg/kg, iv measured after 72 hrs by LC-MS/MS analysis
Type: ADME, organism-based
assay.endpoint: half-life (h)
Give the value, in units of h, as a plain number.

[ask] Please give measured half-life of the following entry: `C#Cc1c(F)ccc2cc(O)cc(-c3ncc4c(N5CC6CCC(C5)N6)nc(OCC5(CN6CCC7(CC6)CC(N6CCC(c8cc9c(cc8F)c(N8CCC(=O)NC8=O)nn9C)CC6)C7)CC5)nc4c3F)c12`
[reply] 15.1

====

System: Protein cereblon/GTPase KRas (Homo sapiens), P01116+Q96SW2 [G12D]
Sequence (P01116 whole entry G12D): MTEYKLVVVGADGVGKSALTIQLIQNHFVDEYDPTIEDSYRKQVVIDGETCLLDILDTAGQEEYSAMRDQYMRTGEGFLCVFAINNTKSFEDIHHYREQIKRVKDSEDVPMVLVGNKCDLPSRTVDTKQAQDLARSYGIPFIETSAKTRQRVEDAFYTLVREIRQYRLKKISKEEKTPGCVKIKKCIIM
Sequence (Q96SW2 whole entry partner): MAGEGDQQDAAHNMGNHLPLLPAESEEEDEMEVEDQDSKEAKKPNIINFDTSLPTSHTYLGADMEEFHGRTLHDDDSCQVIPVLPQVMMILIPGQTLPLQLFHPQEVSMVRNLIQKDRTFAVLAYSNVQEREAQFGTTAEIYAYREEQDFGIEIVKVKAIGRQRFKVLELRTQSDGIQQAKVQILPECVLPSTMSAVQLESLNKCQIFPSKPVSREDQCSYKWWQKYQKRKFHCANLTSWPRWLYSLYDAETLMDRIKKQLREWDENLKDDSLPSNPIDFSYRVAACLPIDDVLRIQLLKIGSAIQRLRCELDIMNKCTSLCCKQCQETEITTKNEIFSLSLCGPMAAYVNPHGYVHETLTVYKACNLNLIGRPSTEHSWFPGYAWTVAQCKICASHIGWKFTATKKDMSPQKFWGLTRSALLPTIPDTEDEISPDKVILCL
Assay: PROTAC activity at CRBN/KRAS G12D mutant in human ASPC1 cells assessed as induction of KRAS G12D mutant degradation at 5 nM measured after 24 hrs by immunoblot analysis relative to control
Format: cell-based
assay.endpoint: Activity (%)
Give the value, in units of %, as a plain number.

[ask] Please give measured Activity of the following entry: `C#Cc1c(F)ccc2cc(O)cc(-c3ncc4c(N5CC6CCC(C5)N6)nc(OCC5(CN6CCC7(CC6)CC(N6CCC(c8cccc(N9CCC(=O)NC9=O)c8)CC6)C7)CC5)nc4c3F)c12`
[reply] 0

[ask] Please give measured Activity of the following entry: C#Cc1c(F)ccc2cc(O)cc(-c3ncc4c(N5CC6CCC(C5)N6)nc(OCC5(CN6CCC7(CC6)CC(N6CCN(c8ccc9c(c8)C(=O)N(C8CCC(=O)NC8=O)C9=O)CC6)C7)CC5)nc4c3F)c12 (stereo not given)
[reply] 48

[ask] Please give measured Activity of the following entry: C#Cc1c(F)ccc2cc(O)cc(-c3ncc4c(N5CC6CCC(C5)N6)nc(OCC5(CN6CCC7(CC6)CC(N6CCC(c8ccc(C9CCC(=O)NC9=O)cc8)CC6)C7)CC5)nc4c3F)c12 (stereo not given)
[reply] 32

[ask] Please give measured Activity of the following entry: C#Cc1c(F)ccc2cc(O)cc(-c3ncc4c(N5CC6CCC(C5)N6)nc(OCC5(CN6CCC7(CC6)CC(N6CCN(c8cccc9c8C(=O)N(C8CCC(=O)NC8=O)C9=O)CC6)C7)CC5)nc4c3F)c12 (stereo not given)
[reply] 21

[ask] Please give measured Activity of the following entry: `C#Cc1c(F)ccc2cc(O)cc(-c3ncc4c(N5CC6CCC(C5)N6)nc(OCC5(CN6CCC7(CC6)CC(N6CCN(c8ccc(NC9%10CC(C9)C(=O)NC%10=O)cc8F)CC6)C7)CC5)nc4c3F)c12`
[reply] 68

====

Test: Metabolic stability in mouse liver microsomes assessed as intrinsic clearance at 1 uM preincubated for 3 mins with NADPH and measured up to 60 mins by LC-MS/MS analysis
Assay type: ADME, Microsome
Settings: time < 63 min, read-out: CLH
assay.endpoint: CLint scaled at 1 µM (mL/min/kg)
Give the value, in units of mL/min/kg, as a plain number.

[ask] Please give measured CLint scaled at 1 µM of the following entry: `C#Cc1c(F)ccc2cc(O)cc(-c3ncc4c(N5CC6CCC(C5)N6)nc(OCC5(CN6CCC7(CC6)CC(N6CCC(c8cc9c(cc8F)c(N8CCC(=O)NC8=O)nn9C)CC6)C7)CC5)nc4c3F)c12`
[reply] 12.7

====

Tested on: Protein cereblon/GTPase KRas (Homo sapiens), P01116+Q96SW2 [G12D]
Test: PROTAC activity at CRBN/KRAS G12D mutant in human ASPC1 cells assessed as induction of KRAS G12D mutant degradation at 5 uM measured after 24 hrs by immunoblot analysis relative to control
Assay type: cell-based
Record form. Attribute: Activity. Fill in for each entry.
Give the value, in units of %, as a plain number.

[ask] Report Activity under test system Protein cereblon/GTPase KRas (Homo sapiens), P01116+Q96SW2 [G12D] for C#Cc1c(F)ccc2cc(O)cc(-c3ncc4c(N5CC6CCC(C5)N6)nc(OCCCN5CCN(CC(=O)N6CCN(c7cccc8c7C(=O)N(C7CCC(=O)NC7=O)C8=O)CC6)CC5)nc4c3F)c12 (centres undefined) .
[reply] 7

[ask] Report Activity under test system Protein cereblon/GTPase KRas (Homo sapiens), P01116+Q96SW2 [G12D] for C#Cc1c(F)ccc2cc(O)cc(-c3ncc4c(N5CC6CCC(C5)N6)nc(OCCCN5CCN(CC(=O)N6CCN(c7ccc8c(c7)C(=O)N(C7CCC(=O)NC7=O)C8=O)CC6)CC5)nc4c3F)c12 (centres undefined) .
[reply] 9

[ask] Report Activity under test system Protein cereblon/GTPase KRas (Homo sapiens), P01116+Q96SW2 [G12D] for C#Cc1c(F)ccc2cc(O)cc(-c3ncc4c(N5CC6CCC(C5)N6)nc(OCCCN5CCN(C(=O)CN6CCN(c7cccc8c7C(=O)N(C7CCC(=O)NC7=O)C8=O)CC6)CC5)nc4c3F)c12 (centres undefined) .
[reply] 7

[ask] Report Activity under test system Protein cereblon/GTPase KRas (Homo sapiens), P01116+Q96SW2 [G12D] for C#Cc1c(F)ccc2cc(O)cc(-c3ncc4c(N5CC6CCC(C5)N6)nc(OCCCN5CCN(C(=O)CN6CCN(c7ccc8c(c7)C(=O)N(C7CCC(=O)NC7=O)C8=O)CC6)CC5)nc4c3F)c12 (centres undefined) .
[reply] 23

====

Assay: Drug concentration in male Balb/c nude mouse tumor xenografted with human PK-59 cells at 10 mg/kg, iv administered as single dose measured after 168 hrs by LC-MS/MS analysis
Assay type: ADME, organism-based, Neoplasm
Conditions: read-out: Ct
assay.endpoint: concentration at 168 h (ng/g)
Give the value, in units of ng/g, as a plain number.

[ask] Please give measured concentration at 168 h of the following entry: `C#Cc1c(F)ccc2cc(O)cc(-c3ncc4c(N5CC6CCC(C5)N6)nc(OCC5(CN6CCC7(CC6)CC(N6CCC(c8cc9c(cc8F)c(N8CCC(=O)NC8=O)nn9C)CC6)C7)CC5)nc4c3F)c12`
[reply] 719

====

Assay: Volume of distribution at steady state in male Beagle dog at 1 mg/kg, iv measured up to 24 hrs by LC-MS/MS analysis
Assay type: ADME, organism-based, Canis lupus familiaris
Conditions: in vivo, read-out: Vdss
assay.endpoint: Vd (L/kg)
Give the value, in units of L/kg, as a plain number.

[ask] Please give measured Vd of the following entry: `C#Cc1c(F)ccc2cc(O)cc(-c3ncc4c(N5CC6CCC(C5)N6)nc(OCC5(CN6CCC7(CC6)CC(N6CCC(c8cc9c(cc8F)c(N8CCC(=O)NC8=O)nn9C)CC6)C7)CC5)nc4c3F)c12`
[reply] 16

====

Assay: Stability in human hepatocyte assessed as half life at 100 uM measured up to 120 mins by LC-MS/MS analysis
Assay type: ADME, cell-based
Details: hepatocytes
assay.endpoint: half-life at 100 µM (h)
Give the value, in units of h, as a plain number.

[ask] Please give measured half-life at 100 µM of the following entry: `C#Cc1c(F)ccc2cc(O)cc(-c3ncc4c(N5CC6CCC(C5)N6)nc(OCC5(CN6CCC7(CC6)CC(N6CCC(c8cc9c(cc8F)c(N8CCC(=O)NC8=O)nn9C)CC6)C7)CC5)nc4c3F)c12`
[reply] 7.27

====

System: Protein cereblon/GTPase KRas (Homo sapiens), P01116+Q96SW2 [G12D]
Test: PROTAC activity at CRBN/KRAS G12D mutant in human ASPC1 cells assessed as induction of KRAS G12D mutant degradation at 1 uM measured after 24 hrs by immunoblot analysis relative to control
Assay type: cell-based
assay.endpoint: Activity (%)
Give the value, in units of %, as a plain number.

[ask] Please give measured Activity of the following entry: C#Cc1c(F)ccc2cc(O)cc(-c3ncc4c(N5CC6CCC(C5)N6)nc(OCCCN5CCN(C(=O)CN6CCN(c7cccc8c7C(=O)N(C7CCC(=O)NC7=O)C8=O)CC6)CC5)nc4c3F)c12 (centres undefined)
[reply] 0

[ask] Please give measured Activity of the following entry: C#Cc1c(F)ccc2cc(O)cc(-c3ncc4c(N5CC6CCC(C5)N6)nc(OCCCN5CCN(C(=O)CN6CCN(c7ccc8c(c7)C(=O)N(C7CCC(=O)NC7=O)C8=O)CC6)CC5)nc4c3F)c12 (centres undefined)
[reply] 21

[ask] Please give measured Activity of the following entry: C#Cc1c(F)ccc2cc(O)cc(-c3ncc4c(N5CC6CCC(C5)N6)nc(OCCCN5CCN(CC(=O)N6CCN(c7cccc8c7C(=O)N(C7CCC(=O)NC7=O)C8=O)CC6)CC5)nc4c3F)c12 (centres undefined)
[reply] 7

[ask] Please give measured Activity of the following entry: C#Cc1c(F)ccc2cc(O)cc(-c3ncc4c(N5CC6CCC(C5)N6)nc(OCCCN5CCN(CC(=O)N6CCN(c7ccc8c(c7)C(=O)N(C7CCC(=O)NC7=O)C8=O)CC6)CC5)nc4c3F)c12 (centres undefined)
[reply] 4

====

Test: Stability in human hepatocyte assessed as intrinsic clearance at 100 uM measured up to 120 mins by LC-MS/MS analysis
Assay type: ADME, cell-based
Settings: hepatocytes, read-out: CLH
assay.endpoint: CLint scaled at 100 µM (mL/min/kg)
Give the value, in units of mL/min/kg, as a plain number.

[ask] Please give measured CLint scaled at 100 µM of the following entry: `C#Cc1c(F)ccc2cc(O)cc(-c3ncc4c(N5CC6CCC(C5)N6)nc(OCC5(CN6CCC7(CC6)CC(N6CCC(c8cc9c(cc8F)c(N8CCC(=O)NC8=O)nn9C)CC6)C7)CC5)nc4c3F)c12`
[reply] 5.8
